Target: Gag-Pol polyprotein (Human immunodeficiency virus type 1 group M subtype A (isolate U455)(HIV-1), UniProt P24740)
Sequence (P24740 1141-1428 limits assumed): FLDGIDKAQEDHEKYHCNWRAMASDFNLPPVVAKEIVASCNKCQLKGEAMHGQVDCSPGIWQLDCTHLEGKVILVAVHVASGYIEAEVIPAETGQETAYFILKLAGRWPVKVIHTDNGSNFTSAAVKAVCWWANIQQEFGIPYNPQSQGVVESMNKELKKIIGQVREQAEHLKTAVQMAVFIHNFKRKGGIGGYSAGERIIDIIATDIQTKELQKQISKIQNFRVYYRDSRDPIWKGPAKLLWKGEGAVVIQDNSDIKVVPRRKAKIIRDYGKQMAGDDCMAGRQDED
Test: Integrase Assay: The effect of each compound on HIV integrase activity was assayed using the HIV-1 Integrase Assay Kit version 2.0, catalogue number EZ-1700 obtained from XpressBio Life Science Products. Immediately prior to the start of the assay, both compounds were dissolved in dimethyl sulfoxide (DMSO) and used immediately in the HIV integration assay. The assay was performed according to the instructions listed by the manufacturer (XpressBio Life Science Products, Maryland, USA). In brief, the required streptavidin-coated strip wells were coated with DS oligo and placed overnight at 4° C. The plates were then incubated with integrase and followed by the addition of test articles at the desired concentration. The plates were developed using the supplied HRP antibody and TMB peroxidase substrate as per the manufacturer's instructions. The reactions were stopped with TMB stop solution and immediately read (<10 min) using a VICTOR XXX. The absorbance of each well was read at 450 nm for 0.5 sec.
recorded.metric: pIC50
The scale used: pIC50 is minus the common logarithm of the concentration in molar units.

Measured pIC50, `Cn1nc(-c2nnc(Cc3ccc(F)cc3)o2)/c(=N/O)c2ncccc21` : 4.62

Measured pIC50, `Cn1cnc(-c2nnc(Cc3ccc(F)cc3)o2)c(O)/c1=N/O` : 4.23
